- Tested on: Escherichia coli TOP10;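 further: peptides expressed intracellularly from a pBAD plasmid library in pooled LB shake-flask culture, induced with 0.3% L-arabinose, DNA abundance read by NGS, three biological replicates, DESeq2 with apeglm shrinkage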
- Procedure Summary: shrunken log2 fold change of peptide-encoding DNA abundance (4.5 h post-induction vs induction); higher = less antimicrobial activity (less host growth inhibition)
- Condition: time post-induction: 4.5 h; library: site-saturation at positions 5, 18, 19, 20
shrunken log2 fold change for assorted sequences
Field format: numeric only.

Some solved cases for reference:
RRIRSRPPRLPRPRPRPLGFPRP : 0.0335
RRIRMRPPRLPRPRPRPVNPPRP : 0.00934
RRIRLRPPRLPRPRPRPKRYPRP : 0.0464
RRIRERPPRLPRPRPRPMSVPRP : -0.158
RRIRIRPPRLPRPRPRPGEGPRP : 0.38
RRIRHRPPRLPRPRPRPTCVPRP : 0.134
RRIRWRPPRLPRPRPRPERAPRP : 0.707
RRIRHRPPRLPRPRPRPWRHPRP : -0.00865

Recall and state the measured shrunken log2 fold change for "RRIRARPPRLPRPRPRPNSVPRP" .
0.0162

Tell me shrunken log2 fold change reported for "RRIRRRPPRLPRPRPRPSRQPRP"
0.352

Reference source for all entries: the supplement of paper PMC9112550
